test system: HT29 colon; assay: NCI tumour cell line growth inhibition, 48 h
We begin with a simple list: items and their reported TGI.

> print(dat)
                                   molecule  system.tested  assay.value
1                      O=C1CCC(=O)N2CCCCN12     HT29 colon     > 100 µM
2  O=C1NC2OC(CO)C(O)C(O1)C2O (stereo unspecified)     HT29 colon     > 100 µM
3  O=C1O[C@@H](c2ccc3c(c2)OCO3)C2C(=O)O[C@@H](c3ccc4c(c3)OCO4)C12 (stereo partly specified)     HT29 colon     > 100 µM
4  O=C1c2cc(Cl)ccc2S(=O)(=O)c2c(NCCCNCCO)nc3ccccc3c21     HT29 colon      2.94 µM

Name the recorded TGI for N#Cc1c(-c2ccc(F)cc2)nc(N/N=C/c2c[nH]c3ccccc23)nc1N1CCOCC1 .
22.6 µM

What value of TGI has been recorded for this entry: Cc1cc2[nH]c3c(C#N)c4c(c(=O)n3c2cc1C)CCCC4
> 100 µM

----------
system: NCI-H460 lung
Below, each of the molecules is paired with its reported GI50 value.

Sample records with GI50:
> print(dat)
                                   molecule  assay.value
1  C=CC(=O)N1CC2(CCN(c3nc(OC4CCN(CCCOC)CC4)nc4c(OCC(F)(F)F)c(-c5c(C)ccc6[nH]ncc56)c(C5CC5)cc34)CC2)C1      2.09 µM
2  O=C1CCCCN1CCCCC#Cc1ccccc1C#Cc1ccc([N+](=O)[O-])cc1         2 µM
3             CCOc1cc2c(Cl)ncnc2c(OCC)c1OCC      5.21 µM
4  CCC[CH2][Sn]([CH2]CCC)([O]C(=O)c1cccnc1SC)[O]C(=O)c1cccnc1SC      1.66 µM
5  N#Cc1c(-c2ccc(F)cc2)nc(N/N=C/c2c[nH]c3ccccc23)nc1N1CCOCC1      3.48 µM

Returns the measured GI50 for the input molecule. Input: COc1cc(C2=C(c3ccccc3)COC2=O)cc(OC)c1OC
0.966 µM

Consider the molecule COc1ccc(/C(COc2c(-c3ccccc3)oc3ccccc3c2=O)=N\O)cc1 and give its measured GI50.
12.3 µM

Can you look up the measured GI50 of CC(C)(C)OC(=O)N1CCc2c(sc3ncnc(N/N=C/c4cccc5ccccc45)c23)C1 for me?
3.29 µM

Which GI50 is listed for COc1cc([N+](=O)[O-])cc2c3c(n(C)c12)[C@@]1(C)CCC2c4ccc(OCc5ccccc5)cc4CCC2C1C3 (some centres undefined) ?
90.1 µM

----------
TGI listing for selected molecules.
tested on: XF 498 CNS; experiment: NCI tumour cell line growth inhibition, 48 h
Note: unit µM is implicit; provide only the numeric part.

Below, each entry is followed by its recorded TGI result.
> print(dat)
                                   molecule  assay.value
1  NC(=O)C(=O)N/N=C(\CC1(O)C(=O)Nc2ccccc21)c1ccc2ccccc2c1 (stereo unspecified)         51.3
2            CN1CCN(C)C12C=c1ccccc1=CC21CC1         49.5

Field: next molecule
Please look up its TGI: CSC(C1c2ccccc2N(c2ccc(C)cc2)C2=NC(=O)N(C)C(=O)C21Cl)S(=O)(=O)c1ccc(C)cc1 (stereo unspecified)
65.2

----------
tested on: M14 melanoma; assay: NCI tumour cell line growth inhibition, 48 h
Recorded GI50 for the following molecules

molecule	system-tested	assay-value
CN1CCN(C(=O)OCc2nc3c(N4CCOCC4)nc(Cl)nc3n2C)CC1	M14 melanoma	1190 nM

What value of GI50 has been recorded for this entry: COc1cc([N+](=O)[O-])cc2c3c(n(C)c12)[C@@]1(C)CCC2c4ccc(OCc5ccccc5)cc4CCC2C1C3 (stereo not given in full)
> 100000 nM

So what's the measured GI50 for this one? CC[C@]1(O)C[C@@H]2CN(CCc3c([nH]c4ccccc34)[C@@](C(=O)OC)(c3cc4c(cc3OC)N(C)[C@H]3[C@@](O)(C(=O)OC)[C@H](OC(C)=O)[C@]5(CC)C=CCN6CC[C@]43[C@@H]65)C2)C1
< 10 nM

Which GI50 value is on record for CC(C)c1nc(CN(C)C(=O)N[C@H](C(=O)N[C@@H](Cc2ccccc2)C[C@H](O)[C@H](Cc2ccccc2)NC(=O)OCc2cncs2)C(C)C)cs1 ?
18000 nM

GI50 lookup needed for CCC[CH2][Sn]1([CH2]CCC)[O]Cc2nc(C)ccc2[O]1 , thanks.
10900 nM

For the molecule O=C1CCCCN1CCCCC#Cc1ccccc1C#Cc1ccc([N+](=O)[O-])cc1 , what GI50 is on record?
5160 nM

Param item = O=C1c2cc(Cl)ccc2S(=O)(=O)c2c(NCCCNCCO)nc3ccccc3c21 ; retrieve measured GI50.
1950 nM

Given the entry C=C1C(=O)O[C@H]2[C@H]1CC/C(Cn1cc(-c3ccc(OC)cc3)nn1)=C\CC[C@@]1(C)O[C@@H]21 , report its measured GI50.
1300 nM

Which GI50 is reported for this molecule? CC/C(=C(/c1ccc(O)cc1)c1ccc(OCCNC)cc1)c1ccccc1
1690 nM

# input molecule: CCC[CH2][Sn]([CH2]CCC)([O]C(=O)c1cccnc1SC)[O]C(=O)c1cccnc1SC ; wanted: its GI50
1040 nM

// GI50 lookup, key: O=c1[nH]ncc(Br)c1Br
2090 nM

Can you share its GI50? I mean this molecule: Oc1ccc(CN2CCC(N3CCCCC3)CC2)c2cccnc12
5750 nM

# input molecule: C[C@@H]1OC(O)[C@@H](F)[C@H](O)[C@@H]1O (stereo not given in full) ; wanted: its GI50
> 100000 nM

Request the reported GI50 associated with CC[C@@]1(O)C(=O)OCc2c1cc1n(c2=O)Cc2c-1nc1cc3c(cc1c2CCl)OCO3
32 nM

Form field: reported GI50 of OCC(O)CC[CH2][Sn]([Br])([c]1ccccc1)[c]1ccccc1 (stereo not given)
> 100000 nM

----------
# key: entry, value: TGI
system: A498 renal; assay: NCI tumour cell line growth inhibition, 48 h
Hi! Could you send only the number? It should be in µM, unit omitted.

Answered examples (2):
> print(dat)
                                  structure  assay.value
1  O=[N+]([O-])c1ccc(NC(=S)N=Nc2c(O)[nH]c3ccc(Br)cc23)cc1         17.2
2  N#Cc1c(-c2ccc(F)cc2)nc(N/N=C/c2c[nH]c3ccccc23)nc1N1CCOCC1         11.5

Now look at this entry.
Report TGI for Nc1cc(N)c2nc(-c3ccccc3)c(Nc3ccc(Cl)c(Cl)c3)nc2c1 please.
26.3

----------
system: RXF 393 renal; experiment: NCI tumour cell line growth inhibition, 48 h; in the data active = GI50 below about 0.43 µM; inactive = the rest
Hi! Could you answer with just one of these? active, inactive

# example entries with known answers
structure	assigned-label
CN1CCN(C(=O)OCc2nc3c(N4CCOCC4)nc(Cl)nc3n2C)CC1	inactive
OCc1c[nH]c2ccccc12	inactive
CCCn1cnc2c(SCc3ccccc3Cl)nc(N)nc21	inactive
C=CCCCCCCCCC(=O)[O][Sn]([CH2]CCC)([CH2]CCC)[CH2]CCC	active
CC[C@]1(O)C[C@@H]2CN(CCc3c([nH]c4ccccc34)[C@@](C(=O)OC)(c3cc4c(cc3OC)N(C)[C@H]3[C@@](O)(C(=O)OC)[C@H](OC(C)=O)[C@]5(CC)C=CCN6CC[C@]43[C@@H]65)C2)C1	active

Name the outcome recorded for CCOc1cc2c(Cl)ncnc2c(OCC)c1OCC in the assay.
inactive

Hi, sorry to bother you, what did the test record for FC(F)(F)c1cccc(Nc2nccc(-c3cnn4nc(-c5ccccc5)ccc34)n2)c1 ?
inactive

----------
test system: HCT-15 colon; test: NCI tumour cell line growth inhibition, 48 h
property-label: TGI (µM)
Give just the numeric value; µM need not be written.

> print(dat)
                              structure  system.tested  assay.value
1  COc1ccc(NC2=CC(=O)C(=O)c3ccccc32)nn1   HCT-15 colon         2.51

Entry N#Cc1c(-c2ccc(F)cc2)nc(N/N=C/c2c[nH]c3ccccc23)nc1N1CCOCC1 : reported TGI = ?
4.56

----------
test system: 786-0 renal; test: NCI tumour cell line growth inhibition, 48 h
property-label: TGI

Here are 5 compounds together with their reported answers.
> print(dat)
                                   compound  property.label  assay.value
1  CC(C)(C)OC(=O)N1CCc2c(sc3ncnc(N/N=C/c4cccc5ccccc45)c23)C1             TGI     > 100 µM
2  C=CCCCCCCCCC(=O)[O][Sn]([CH2]CCC)([CH2]CCC)[CH2]CCC             TGI     0.275 µM
3  NC1CNC(=O)c2c(Cl)sc(Cl)c21 (stereo unspecified)             TGI     > 100 µM
4  CC/C(=C(/c1ccc(O)cc1)c1ccc(OCCNC)cc1)c1ccccc1             TGI      3.27 µM
5    Cn1c(=O)c2[nH]c(SCc3ccccn3)nc2n(C)c1=S             TGI     > 100 µM

Recall the recorded TGI for c1ccc(/C(=N/Nc2ccccn2)c2ncccn2)cc1 with 786-0 renal and state it.
> 100 µM

Kindly state the measured TGI obtained for COc1ccc2c(c1)CN1C(=N2)CSC1c1ccccc1Cl (stereo unspecified) with 786-0 renal.
34.5 µM

Give recorded TGI with 786-0 renal for the following compound: COc1cc(CN2CCCCC2)cc2cc(C(=O)O)c(=O)oc12
> 100 µM
